- target.under.test: T1, his-tagged human CDH6 extracellular region protein (hCDH6 ECD-his) (human, UniProt P55285 19-615)
- T1 construct: also called Human CDH6-his; hCDH6-his; not shown: his tag
- T1 sequence: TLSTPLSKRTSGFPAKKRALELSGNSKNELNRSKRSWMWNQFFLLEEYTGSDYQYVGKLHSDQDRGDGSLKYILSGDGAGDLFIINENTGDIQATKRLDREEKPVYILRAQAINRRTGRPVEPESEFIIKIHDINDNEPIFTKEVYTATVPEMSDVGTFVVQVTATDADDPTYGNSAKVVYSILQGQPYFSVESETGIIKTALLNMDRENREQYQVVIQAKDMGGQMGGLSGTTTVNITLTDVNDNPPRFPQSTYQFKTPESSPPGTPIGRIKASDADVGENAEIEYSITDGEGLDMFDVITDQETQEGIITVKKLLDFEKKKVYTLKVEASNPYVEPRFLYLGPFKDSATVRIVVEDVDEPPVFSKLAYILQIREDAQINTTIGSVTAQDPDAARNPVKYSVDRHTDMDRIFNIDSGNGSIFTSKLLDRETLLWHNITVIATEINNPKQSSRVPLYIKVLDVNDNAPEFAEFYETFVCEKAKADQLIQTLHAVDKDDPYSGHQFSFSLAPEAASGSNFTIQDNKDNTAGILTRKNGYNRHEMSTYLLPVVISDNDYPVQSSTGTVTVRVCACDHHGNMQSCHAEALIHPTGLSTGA
- assay.explanation: ELISA, coated antigen
experimental.readout: Max OD450 (OD450)
Numeric only. Scale: OD450

Need Max OD450 of hCDH6-14-H1L2 (antibody, V domains shown, Humanized) VH: EVQLVQSGAEVKKPGASVKVSCKASGYTFTDNYINWVRQAPGQRLEWMGWIYPGTGNSYYNEKFKGRVTITVDTSASTAYMELSSLRSEDTAVYYCASSYGDSFDYWGQGTTVTVSS VL: DIQMTQSPSSLSASVGDRVTITCRASQDIRNYLNWYQQKPGGAPKLLISYTSRLHSGVPSRFSGSGSGTDFTFTISSLQPEDIATYYCQQYSQLPWTFGGGTKVEIK , thanks.
2.84

Need Max OD450 of hCDH6-14-H5L1 (antibody, V domains shown, Humanized) VH: EVQLQQSGAEVKKPGASVKVSCKASGYTFTDNYINWVRQAPGQRLEWMGWIYPGTGNSYYNEKFKGRVTITVDTSASTAYMELSSLRSEDTAVYYCASSYGDSFDYWGQGTTVTVSS VL: DIQMTQSPSSLSASVGDRVTITCRASQDIRNYLNWYQQKPGKAFKLLISYTSRLHSGVPSRFSGSGSGTDFTFTISSLQPEDIATYYCQQYSQLPWTFGGGTKVEIK , thanks.
2.81

Need Max OD450 of hCDH6-1-H3L1 (antibody, V domains shown, Humanized) VH: EVQLVQSGAEVKKPGSSVKVSCKASGYTFTNYWMHWVRQAPGQGLEWMGDIDPSHSETHYTQKFKDRVTLTVDKSTSTAYMELSSLRSEDTAVYYCARGDLGRFDYWGQGTTVTVSS VL: DIVMTQSPDSLAVSLGERATINCRASESVSIHGTHLMHWYQQKPGQPPKLLIYAASNLESGVPDRFSGSGSETDFTLTISSLQAEDVAVYYCQQSFEDPWTFGGGTKVEIK , thanks.
2.6

Need Max OD450 of hCDH6-14-H5L2 (antibody, V domains shown, Humanized) VH: EVQLQQSGAEVKKPGASVKVSCKASGYTFTDNYINWVRQAPGQRLEWMGWIYPGTGNSYYNEKFKGRVTITVDTSASTAYMELSSLRSEDTAVYYCASSYGDSFDYWGQGTTVTVSS VL: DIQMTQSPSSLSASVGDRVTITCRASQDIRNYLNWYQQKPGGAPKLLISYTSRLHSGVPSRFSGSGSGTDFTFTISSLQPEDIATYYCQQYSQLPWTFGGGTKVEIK , thanks.
2.58

Need Max OD450 of hCDH6-14-H3L2 (antibody, V domains shown, Humanized) VH: EIQLVQSGAEVKKPGASVKVSCKASGYTFTDNYINWVRQAPGQRLEWMGWIYPGTGNSYYNEKFKGRVTLTVDTSASTAYMELSSLRSEDTAVYYCASSYGDSFDYWGQGTTVTVSS VL: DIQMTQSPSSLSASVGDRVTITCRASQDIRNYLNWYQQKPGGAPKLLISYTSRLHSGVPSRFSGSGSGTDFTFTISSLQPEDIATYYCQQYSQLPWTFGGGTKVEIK , thanks.
2.63
